The values you see were collected from ChEMBL document CHEMBL1143459.

ASSAY SYSTEM: Serotonin 3 (5-HT3) receptor
TEST PROTOCOL: Binding affinity towards human 5-hydroxytryptamine 3 serotonin membrane receptor using [3H]GR-65630 at 10 uM

| MOLECULE | ASSAY SYSTEM | U | inhibition |
| --- | --- | --- | --- |
| O=C(NC1CN2CCC1CC2)c1cc(-c2ccccc2)sn1 (stereo not drawn) | Serotonin 3 (5-HT3) receptor | % | 28 |
| O=C(NC1CN2CCC1CC2)c1ccc(-c2ccccc2Cl)s1 (stereo not drawn) | Serotonin 3 (5-HT3) receptor | % | 45 |
| COc1ccccc1-c1ccc(C(=O)NC2CN3CCC2CC3)s1 (stereo not drawn) | Serotonin 3 (5-HT3) receptor | % | 27 |
| CCN1C[C@]2(COC(=O)c3ccccc3N3C(=O)C[C@H](C)C3=O)CC[C@H](OC)[C@@]34[C@@H]5C[C@H]6[C@H](OC)[C@@H]5[C@](O)(C[C@@H]6OC)[C@](O)([C@@H](OC)[C@H]23)[C@@H]14 | Serotonin 3 (5-HT3) receptor | % | 16.5 |
| O=C(N[C@H]1CN2CCC1CC2)c1ccc(-c2ccccn2)s1 | Serotonin 3 (5-HT3) receptor | % | 15.5 |
| CC(=O)O.O=C(N[C@H]1CN2CCC1CC2)c1ccc(-c2ccccc2)s1 | Serotonin 3 (5-HT3) receptor | % | 24 |
| O=C1NC[C@]2(CN3CCC2CC3)O1 | Serotonin 3 (5-HT3) receptor | % | 2.5 |
| O=C(NC1CN2CCC1CC2)c1ccc(-c2ccccn2)s1 (stereo not drawn) | Serotonin 3 (5-HT3) receptor | % | 28 |
